Reference source for all entries: PubChem BioAssay

- Test Method Notes: liver-stage malaria parasite growth inhibition, primary screen, cell-based, HepG2, luciferase luminescence, HepG2 viability (AID 624349)
- Setup Conditions: P. berghei liver stage in HepG2, luciferase luminescence, concentration not given here; hits give low values
Records here are stratified by parasite load remaining; strata: lower band: < 30%; central band: ≥ 30% and < 70%; upper band: ≥ 70%

Inquiry: Please indicate the class for "NCCNCCNCCN" based on its parasite load remaining.
Reply text: central band

Inquiry: "O=C(Nc1cccc2c(=O)cc(-c3nn[nH]n3)oc12)c1ccc(OCCCCc2ccccc2)cc1" , same question.
Reply text: central band

Inquiry: COC(=O)C1=C(C)NC(C)=C(C(=O)OCCN2CCN(C(c3ccccc3)c3ccccc3)CC2)C1c1cccc([N+](=O)[O-])c1 (configuration not stated) , same question.
Reply text: lower band

Inquiry: "N#Cc1ccc2c(c1)N(CCCN1CCC(O)CC1)c1ccccc1S2" , same question.
Reply text: upper band

Inquiry: "C[C@H](CCC(=O)O)[C@H]1CC[C@H]2[C@@H]3CC[C@@H]4C[C@H](O)CC[C@]4(C)[C@H]3CC[C@]12C" , same question.
Reply text: upper band

Inquiry: "Cc1nc2c([nH]1)c(=O)n(C)c(=O)n2Cc1ccco1" , same question.
Reply text: upper band

Inquiry: "C[N+](C)(C)CCOC(=O)CCC(=O)OCC[N+](C)(C)C" , same question.
Reply text: lower band

Inquiry: "COc1cc(OC)c2ccc(=O)oc2c1" , same question.
Reply text: upper band

Inquiry: "C=C[C@H]1CN2CC[C@H]1C[C@H]2[C@H](O)c1ccnc2ccc(OC)cc12" , same question.
Reply text: central band

Inquiry: C=C[C@H]1CN2CCC1C[C@@H]2[C@@H](O)c1ccnc2ccc(OC)cc12 (some centres not stated) , same question.
Reply text: lower band

Inquiry: "O=C(O)CN(CC(=O)O)Cc1cc2c(-c3ccccc3C(=O)O)c3cc(CN(CC(=O)O)CC(=O)O)c(=O)cc-3oc2cc1O" , same question.
Reply text: upper band

Inquiry: "CN1CCN(c2c(F)cc3c(=O)c(C(=O)O)cn(CCF)c3c2F)CC1" , same question.
Reply text: lower band

Inquiry: "CN(C)CCCO[C@@H]1[C@H]2OC(C)(C)O[C@H]2O[C@@H]1[C@H](O)CO" , same question.
Reply text: central band

Inquiry: "CN=C(NC#N)NCCSCc1csc(N=C(N)N)n1" , same question.
Reply text: central band

Inquiry: "CN(C)CCN(Cc1ccc(Cl)cc1)c1ccccn1" , same question.
Reply text: upper band

Inquiry: "Clc1ccc(Nc2nnc(Cc3ccncc3)c3ccccc23)cc1" , same question.
Reply text: lower band

Inquiry: "O=C(CCCN1CCC(O)(c2cccc(C(F)(F)F)c2)CC1)c1ccc(F)cc1" , same question.
Reply text: lower band

Inquiry: "CN(C)CCN1C(=O)c2ccccc2N(C)c2ccccc21" , same question.
Reply text: lower band
